Assayed system: uPAR (Homo sapiens, UniProt Q03405)
Construct: these cells express high levels of unoccupied uPA receptors; endogenous in cells
Sequence (Q03405 23-335): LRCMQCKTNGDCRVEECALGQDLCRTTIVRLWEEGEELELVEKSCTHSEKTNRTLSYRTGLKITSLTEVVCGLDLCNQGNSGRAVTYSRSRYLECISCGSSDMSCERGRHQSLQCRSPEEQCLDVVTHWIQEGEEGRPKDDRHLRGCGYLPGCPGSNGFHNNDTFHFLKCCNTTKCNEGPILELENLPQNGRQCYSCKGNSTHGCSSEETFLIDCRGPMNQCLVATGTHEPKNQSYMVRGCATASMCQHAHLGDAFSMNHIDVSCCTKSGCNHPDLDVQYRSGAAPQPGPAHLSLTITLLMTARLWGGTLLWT
Assay comment: cell-based, competition radioligand binding assay (specific binding of c-[125I-Tyr24]-ATFp to DU-145 cells)
Test context: radioligand c-[125I-Tyr24]-ATFp 3 nM (1.5 Kd), 4° C. for 90 min, duplicate tubes, 2-3 independent experiments
pIC50: −log10 of the molar value.
fulfilled means recorded pIC50 is 7 or above; not fulfilled means it is below 7.

Consider the worked cases shown below.
O=C(N[C@@H](Cc1c[nH]c2ccccc12)C(=O)Nc1ccc(-c2ccc(C(=O)N[C@@H](Cc3ccccc3)C(=O)O)cc2)cc1)OCC1c2ccccc2-c2ccccc21 [Example 8-D]    not fulfilled
CC(=O)N[C@H](Cc1c[nH]c2ccccc12)C(=O)Nc1ccc(-c2ccc(C(=O)NCCC(=O)O)cc2)cc1 [Example 8-G]    fulfilled
CC(=O)N[C@@H](Cc1c[nH]c2ccccc12)C(=O)Nc1ccc(-c2ccc(C(=O)NCCc3ccccc3)cc2)cc1 [Example 11-W]    not fulfilled
CC(=O)N[C@@H](Cc1c[nH]c2ccccc12)C(=O)Nc1ccc(-c2ccc(C(=O)N[C@@H](Cc3ccccc3)C(N)=O)cc2)cc1 [Example 10-U]    fulfilled
CC(=O)N[C@@H](Cc1c[nH]c2ccccc12)C(=O)Nc1ccc(-c2ccc(C(=O)N[C@@H](Cc3ccc(O)cc3)C(=O)O)cc2)cc1 [Example 9-T]    fulfilled

Query compound follows.
QUERY: Say whether CC(=O)N[C@H](Cc1c[nH]c2ccccc12)C(=O)Nc1ccc(-c2ccc(C(=O)N[C@@H](CC(=O)O)C(=O)O)cc2)cc1 [Example 9-I] shows pIC50 of 7 or more.
RESULT: fulfilled
